target: Chymotrypsin-C (Homo sapiens) (UniProt Q99895); assay: Inhibition of chymotrypsin at 250 uM; details: unidentified
Sequence (Q99895 whole entry): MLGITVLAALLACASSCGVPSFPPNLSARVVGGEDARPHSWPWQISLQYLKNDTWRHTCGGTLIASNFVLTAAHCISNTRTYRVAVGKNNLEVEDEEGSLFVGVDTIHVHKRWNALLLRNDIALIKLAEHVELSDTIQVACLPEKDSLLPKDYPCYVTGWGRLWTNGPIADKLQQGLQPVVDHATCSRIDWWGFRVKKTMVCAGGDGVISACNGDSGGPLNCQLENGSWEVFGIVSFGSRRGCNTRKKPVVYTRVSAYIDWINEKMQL
MEASUREMENT_KIND: inhibition (%)

{"columns": ["TEST_SMILES", "RESULT_OPERATOR", "RESULT"],
 "data": [
  ["Cc1cc2nc3c(=O)[nH]c(=O)nc-3n(C[C@H](O)[C@H](O)[C@H](O)CO)c2cc1C", "<", 5],
  ["CC(=O)N(O)CCCCCNC(=O)CCC(=O)N(O)CCCCCNC(=O)CCC(=O)N(O)CCCCCN", "<", 5],
  ["Nc1ccc(/N=N/c2ccccc2)c(N)n1", "=", 96],
  ["O=C(O)c1cc(-c2ccc(F)cc2F)ccc1O", "=", 13]
]}

----------
biological target: Chymotrypsinogen A (Bos taurus, UniProt P00766); test: Compound was tested for the inhibition of Chymotrypsinogen
pIC50: −log10 of the molar value.

{"columns": ["COMPOUND", "RESULT_OPERATOR", "pIC50"],
 "data": [
  ["CC(C)Nc1cccnc1N1CCN(C(=O)c2cc3cc(NS(C)(=O)=O)ccc3[nH]2)CC1 [DELAVIRDINE]", "=", 3.65],
  ["O=C(O)CCc1nc(-c2ccccc2)c(-c2ccccc2)o1 [OXAPROZIN]", "=", 3.70],
  ["COc1ccc(Cl)cc1C(=O)NCCc1ccc(S(=O)(=O)NC(=O)NC2CCCCC2)cc1 [GLYBURIDE]", "=", 3.44],
  ["O=C(OCc1ccccc1)c1ccccc1 [BENZYL BENZOATE]", "=", 3.60],
  ["COC(=O)C1=C(C)NC(C)=C(C(=O)OCCN(C)Cc2ccccc2)C1c1cccc([N+](=O)[O-])c1 (stereo unspecified) [NICARDIPINE]", "=", 3.76],
  ["Clc1ccc(CSC(Cn2ccnc2)c2ccc(Cl)cc2Cl)cc1 (stereo unspecified) [SULCONAZOLE]", "=", 3.96],
  ["Clc1ccc(COC(Cn2ccnc2)c2ccc(Cl)cc2Cl)c(Cl)c1 (stereo unspecified) [MICONAZOLE]", "=", 3.90],
  ["Clc1ccc(COC(Cn2ccnc2)c2ccc(Cl)cc2Cl)cc1 (stereo unspecified) [ECONAZOLE]", "=", 3.82],
  ["CC(=O)N1CCN(c2ccc(OCC3COC(Cn4ccnc4)(c4ccc(Cl)cc4Cl)O3)cc2)CC1 (stereo unspecified) [KETOCONAZOLE]", "<", 3.82],
  ["OC(Cn1cncn1)(Cn1cncn1)c1ccc(F)cc1F [FLUCONAZOLE]", "<", 3.40],
  ["Clc1ccccc1C(c1ccccc1)(c1ccccc1)n1ccnc1 [CLOTRIMAZOLE]", "=", 4.07]
]}

----------
assay: Mean maximal plasma concentration; format: ADME, organism-based
Property: Cmax; scope: individual compounds
MEASUREMENT_KIND: Cmax (µM)

{"columns": ["COMPOUND", "MEASUREMENT_KIND", "RESULT"],
 "data": [
  ["COc1ccc(Cl)cc1C(=O)NCCc1ccc(S(=O)(=O)NC(=O)NC2CCCCC2)cc1 [GLYBURIDE]", "Cmax", 0.215],
  ["O=C(O)CCc1nc(-c2ccccc2)c(-c2ccccc2)o1", "Cmax", 372],
  ["COC(=O)C1=C(C)NC(C)=C(C(=O)OCCN(C)Cc2ccccc2)C1c1cccc([N+](=O)[O-])c1 (centres undefined)", "Cmax", 0.184],
  ["Cc1cccc(Nc2ccccc2C(=O)O)c1C", "Cmax", 83]
]}

----------
biological target: Beta-lactamase (Escherichia coli K-12, UniProt P00811); test: Compound was tested for the inhibition of beta-lactamase
Sequence (P00811 whole entry): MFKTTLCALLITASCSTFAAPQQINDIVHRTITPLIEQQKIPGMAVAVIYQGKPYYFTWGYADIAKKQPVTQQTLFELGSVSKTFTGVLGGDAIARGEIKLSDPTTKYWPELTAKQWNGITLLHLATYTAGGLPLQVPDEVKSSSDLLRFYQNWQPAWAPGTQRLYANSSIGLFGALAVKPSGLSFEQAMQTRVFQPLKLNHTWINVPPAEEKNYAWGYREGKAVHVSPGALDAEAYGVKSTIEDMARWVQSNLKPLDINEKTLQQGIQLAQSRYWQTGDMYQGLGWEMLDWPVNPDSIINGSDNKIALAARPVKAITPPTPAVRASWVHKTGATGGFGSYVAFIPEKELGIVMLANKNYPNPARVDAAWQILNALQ
Reported IC50 values follow for various compounds
MEASUREMENT_KIND: IC50 (µM)

{"columns": ["COMPOUND", "RESULT_OPERATOR", "RESULT"],
 "data": [
  ["Cc1cccc(Nc2ccccc2C(=O)O)c1C", "=", 350],
  ["Clc1ccccc1C(c1ccccc1)(c1ccccc1)n1ccnc1", "=", 20],
  ["OC(Cn1cncn1)(Cn1cncn1)c1ccc(F)cc1F", ">", 400],
  ["Clc1ccc(COC(Cn2ccnc2)c2ccc(Cl)cc2Cl)c(Cl)c1 (stereo not given)", "=", 40],
  ["CC(C)Nc1cccnc1N1CCN(C(=O)c2cc3cc(NS(C)(=O)=O)ccc3[nH]2)CC1", "=", 90]
]}

----------
biological target: Malate dehydrogenase, cytoplasmic (Homo sapiens); assay: Inhibition of malate dehydrogenase (MDH) at 400 uM
MEASUREMENT_KIND: inhibition (%)

{"columns": ["COMPOUND", "TARGET_SYSTEM", "RESULT_OPERATOR", "RESULT"],
 "data": [
  ["CNCCCC1c2ccccc2C=Cc2ccccc21", "Malate dehydrogenase, cytoplasmic (Homo sapiens)", "<", 5],
  ["NCCNCCNCCNCCN", "Malate dehydrogenase, cytoplasmic (Homo sapiens)", "<", 5],
  ["CN(C)CCN(Cc1ccccc1)c1ccccn1", "Malate dehydrogenase, cytoplasmic (Homo sapiens)", "<", 5],
  ["N=C(N)N/N=C/c1c(Cl)cccc1Cl", "Malate dehydrogenase, cytoplasmic (Homo sapiens)", "=", 20],
  ["O=C1CCC(N2C(=O)c3ccccc3C2=O)C(=O)N1 (centres undefined)", "Malate dehydrogenase, cytoplasmic (Homo sapiens)", "<", 5],
  ["CC(=O)N(O)CCCCCNC(=O)CCC(=O)N(O)CCCCCNC(=O)CCC(=O)N(O)CCCCCN", "Malate dehydrogenase, cytoplasmic (Homo sapiens)", "<", 5],
  ["NC(=O)N1c2ccccc2C=Cc2ccccc21", "Malate dehydrogenase, cytoplasmic (Homo sapiens)", "=", 8],
  ["COc1cc(Cc2cnc(N)nc2N)cc(OC)c1OC", "Malate dehydrogenase, cytoplasmic (Homo sapiens)", "<", 5],
  ["Nc1nnc(-c2cccc(Cl)c2Cl)c(N)n1", "Malate dehydrogenase, cytoplasmic (Homo sapiens)", "=", 11],
  ["COC(=O)Nc1nc2cc(C(=O)c3ccccc3)ccc2[nH]1", "Malate dehydrogenase, cytoplasmic (Homo sapiens)", "=", 15],
  ["Nc1ccc(/N=N/c2ccccc2)c(N)n1", "Malate dehydrogenase, cytoplasmic (Homo sapiens)", "=", 34],
  ["COc1ccc2c(c1)c(CC(=O)O)c(C)n2C(=O)c1ccc(Cl)cc1", "Malate dehydrogenase, cytoplasmic (Homo sapiens)", "=", 7],
  ["O=C1C(CC[S+]([O-])c2ccccc2)C(=O)N(c2ccccc2)N1c1ccccc1 (centres undefined)", "Malate dehydrogenase, cytoplasmic (Homo sapiens)", "=", 83],
  ["O=C(O)CCCc1ccc(N(CCCl)CCCl)cc1", "Malate dehydrogenase, cytoplasmic (Homo sapiens)", "=", 44],
  ["Cc1oncc1C(=O)Nc1ccc(C(F)(F)F)cc1", "Malate dehydrogenase, cytoplasmic (Homo sapiens)", "=", 12],
  ["O=C1CN(/N=C/c2ccc([N+](=O)[O-])o2)C(=O)N1", "Malate dehydrogenase, cytoplasmic (Homo sapiens)", "=", 97],
  ["O=C(O)c1cc(-c2ccc(F)cc2F)ccc1O", "Malate dehydrogenase, cytoplasmic (Homo sapiens)", "<", 5],
  ["Nc1ccc(S(=O)(=O)c2ccc(N)cc2)cc1", "Malate dehydrogenase, cytoplasmic (Homo sapiens)", "=", 11],
  ["CN(C)CCOC(c1ccccc1)c1ccccc1", "Malate dehydrogenase, cytoplasmic (Homo sapiens)", "<", 5]
]}

----------
target: Beta-lactamase (Escherichia coli K-12); test: Inhibition of beta-lactamase at 100 uM
# reported inhibition; entries follow

{"columns": ["COMPOUND", "inhibition"],
 "data": [
  ["O=C(O)CCCc1ccc(N(CCCl)CCCl)cc1", "< 5%"],
  ["CCC1(c2ccccc2)C(=O)NCNC1=O", "< 5%"],
  ["N=C(N)N/N=C/c1c(Cl)cccc1Cl", "83%"],
  ["COc1cc2nc(N3CCN(C(=O)c4ccco4)CC3)nc(N)c2cc1OC", "13%"],
  ["COc1cc(Cc2cnc(N)nc2N)cc(OC)c1OC", "< 5%"],
  ["Cc1c(OCC(F)(F)F)ccnc1C[S+]([O-])c1nc2ccccc2[nH]1 (configuration not stated)", "< 5%"],
  ["COC(=O)Nc1nc2cc(C(=O)c3ccccc3)ccc2[nH]1", "< 5%"],
  ["Cc1cccc(Nc2ccncc2S(=O)(=O)NC(=O)NC(C)C)c1", "< 5%"],
  ["Nc1ccc(/N=N/c2ccccc2)c(N)n1", "< 5%"],
  ["COc1ccc2c(c1)c(CC(=O)O)c(C)n2C(=O)c1ccc(Cl)cc1", "< 5%"],
  ["Nc1ccc(S(=O)(=O)Nc2ncccn2)cc1", "< 5%"],
  ["CN(C)CCN(Cc1ccccc1)c1ccccn1", "< 5%"]
]}

----------
molecular target: Chymotrypsin-C (Homo sapiens); test: Inhibition of chymotrypsin at 250 uM; details: unidentified
MEASUREMENT_KIND: inhibition

{"columns": ["MOLECULE", "TARGET_SYSTEM", "RESULT"],
 "data": [
  ["O=C(O)CCCc1ccc(N(CCCl)CCCl)cc1", "Chymotrypsin-C (Homo sapiens)", "23%"],
  ["CC(C)C(=O)Nc1ccc([N+](=O)[O-])c(C(F)(F)F)c1", "Chymotrypsin-C (Homo sapiens)", "< 5%"],
  ["COc1ccccc1OCC(O)CO (stereo not drawn)", "Chymotrypsin-C (Homo sapiens)", "< 5%"],
  ["NC(=O)N1c2ccccc2C=Cc2ccccc21", "Chymotrypsin-C (Homo sapiens)", "< 5%"],
  ["Nc1ccc(O)c(C(=O)O)c1", "Chymotrypsin-C (Homo sapiens)", "< 5%"],
  ["COc1cc2nc(N3CCN(C(=O)c4ccco4)CC3)nc(N)c2cc1OC", "Chymotrypsin-C (Homo sapiens)", "< 5%"],
  ["COc1cc(Cc2cnc(N)nc2N)cc(OC)c1OC", "Chymotrypsin-C (Homo sapiens)", "< 5%"],
  ["CCCC(C)(COC(N)=O)COC(=O)NC(C)C (stereo not drawn)", "Chymotrypsin-C (Homo sapiens)", "< 5%"],
  ["O=C1C(CC[S+]([O-])c2ccccc2)C(=O)N(c2ccccc2)N1c1ccccc1 (stereo not drawn)", "Chymotrypsin-C (Homo sapiens)", "27%"],
  ["Nc1ccc(S(=O)(=O)c2ccc(N)cc2)cc1", "Chymotrypsin-C (Homo sapiens)", "< 5%"],
  ["O=C1CN(/N=C/c2ccc([N+](=O)[O-])o2)C(=O)N1", "Chymotrypsin-C (Homo sapiens)", "91%"],
  ["O=C(O)CCCCCCCC(=O)O", "Chymotrypsin-C (Homo sapiens)", "< 5%"],
  ["Nc1c2c(nc3ccccc13)CCCC2", "Chymotrypsin-C (Homo sapiens)", "< 5%"]
]}
